Test: Solubility of fluticasone propionate in FDA-approved solvents and excipients (RP-HPLC at 239 nm)
Type: physicochemical
Conditions: Corn oil, 25 °C, oil or lipid, thermodynamic from solid, in Corn oil; overnight at 25 degrees centigrade; read-out: Solubility
readoutName: solubility (µg/mL)
The response must be a number in µg/mL with no trailing unit.

Challenge: Read off the recorded solubility for CCC(=O)O[C@]1(C(=O)SCF)[C@H](C)C[C@H]2[C@@H]3C[C@H](F)C4=CC(=O)C=C[C@]4(C)[C@@]3(F)[C@@H](O)C[C@@]21C [fluticasone propionate]
Response given: 6.9

----------
Test: Solubility of triamcinolone acetonide in non-aqueous solvents
Format: physicochemical
Conditions: organic solvent or mixture, thermodynamic from solid; in Propylene glycol; sonicated in water bath at 37° C.; preliminary estimation
readoutName: solubility at 15 min

Challenge: Read off the recorded solubility at 15 min for CC1(C)O[C@@H]2C[C@H]3[C@@H]4CCC5=CC(=O)C=C[C@]5(C)[C@@]4(F)[C@@H](O)C[C@]3(C)[C@]2(C(=O)CO)O1 [triamcinolone acetonide]
Response given: 14 mg/mL

----------
Assay: Solubility of fluticasone propionate in FDA-approved solvents and excipients (RP-HPLC at 239 nm)
Format: physicochemical
Details: PHOSAL 50 PG, 25 °C, oil or lipid, thermodynamic from solid, in PHOSAL 50 PG; overnight at 25 degrees centigrade; read-out: Solubility
readoutName: solubility

Challenge: Read off the recorded solubility for CCC(=O)O[C@]1(C(=O)SCF)[C@H](C)C[C@H]2[C@@H]3C[C@H](F)C4=CC(=O)C=C[C@]4(C)[C@@]3(F)[C@@H](O)C[C@@]21C [fluticasone propionate]
Response given: 426 µg/mL

----------
Test: Solubility of fluticasone propionate in FDA-approved solvents and excipients (RP-HPLC at 239 nm)
Type: physicochemical
Details: water, 25 °C, water, thermodynamic from solid, in water; overnight at 25 degrees centigrade; read-out: Solubility
Method: The specific composition of Phase I depends upon the solubility of the drug in this phase. […] The suspension was centrifuged at 10,000 rpm and the supernatant analyzed by RP-HPLC at 239 nm.
readoutName: solubility

Challenge: Read off the recorded solubility for CCC(=O)O[C@]1(C(=O)SCF)[C@H](C)C[C@H]2[C@@H]3C[C@H](F)C4=CC(=O)C=C[C@]4(C)[C@@]3(F)[C@@H](O)C[C@@]21C [fluticasone propionate]
Response given: 0.14 µg/mL

----------
Experiment: Solubility of fluticasone propionate in FDA-approved solvents and excipients (RP-HPLC at 239 nm)
Assay type: physicochemical
Settings: Propylene glycol, 25 °C, organic solvent or mixture, thermodynamic from solid, in Propylene glycol; overnight at 25 degrees centigrade; read-out: Solubility
readoutName: solubility (µg/mL)
The response must be a number in µg/mL with no trailing unit.

Challenge: Read off the recorded solubility for CCC(=O)O[C@]1(C(=O)SCF)[C@H](C)C[C@H]2[C@@H]3C[C@H](F)C4=CC(=O)C=C[C@]4(C)[C@@]3(F)[C@@H](O)C[C@@]21C [fluticasone propionate]
Response given: 764

----------
Assay: Solubility of fluticasone propionate in FDA-approved solvents and excipients (RP-HPLC at 239 nm)
Assay type: physicochemical
Details: Span 20, 25 °C, aqueous with cosolvent or surfactant or cyclodextrin, thermodynamic from solid, in Span 20; overnight at 25 degrees centigrade; read-out: Solubility
readoutName: solubility (µg/mL)
The response must be a number in µg/mL with no trailing unit.

Challenge: Read off the recorded solubility for CCC(=O)O[C@]1(C(=O)SCF)[C@H](C)C[C@H]2[C@@H]3C[C@H](F)C4=CC(=O)C=C[C@]4(C)[C@@]3(F)[C@@H](O)C[C@@]21C [fluticasone propionate]
Response given: 46.9
